- Target Or System: human TSLP recombinant protein (human, UniProt Q969D9 29-159, biotinylated in the blocking and cell-binding assays (sites not given))
- Measurement Description: cell-based or functional assay
Observable: Inhibition of Cell Proliferation IC50

Example entries begin here.
{"Binder": "Ab26 (antibody, V domains shown, Humanized; also called h39G5VHv10/h71G4VKv1; h39G5VHv10/h71G4VKv1 hIgG1) VH: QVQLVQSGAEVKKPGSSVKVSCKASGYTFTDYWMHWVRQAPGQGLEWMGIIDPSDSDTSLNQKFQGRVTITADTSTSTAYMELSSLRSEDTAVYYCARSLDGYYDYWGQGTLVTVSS VL: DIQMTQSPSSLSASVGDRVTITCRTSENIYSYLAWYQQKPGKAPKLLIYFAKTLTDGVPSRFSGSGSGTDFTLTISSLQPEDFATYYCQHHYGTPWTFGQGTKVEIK", "Inhibition of Cell Proliferation IC50": "1.5 nM"}
{"Binder": "Ab21 (antibody, V domains shown, Humanized; also called h71G4VHv3/h71G4VKv1) VH: QVQLVQSGAEVKKPGSSVKVSCKASGYTFTDYWMHWVRQAPGQGLEWMGTIDNSDSDTTYNQKFQGRVTMTRDTSTSTVYMELSSLRSEDTAVYYCARSVDGYLDYWGQGTLVTVSS VL: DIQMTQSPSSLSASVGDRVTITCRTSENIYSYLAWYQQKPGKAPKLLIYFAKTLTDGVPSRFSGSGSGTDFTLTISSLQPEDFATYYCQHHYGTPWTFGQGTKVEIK", "Inhibition of Cell Proliferation IC50": "178 nM"}

In the following, a different binder is considered.
Give the measured Inhibition of Cell Proliferation IC50 of Ab22 (antibody, V domains shown, Humanized; also called h39G5VHv1/h71G4VKv1; h39G5VHv1/h7IG4VKv1 hIgG1) VH: QVQLVQSGAEVKKPGSSVKVSCKASGYSFISYWIHWVRQAPGQGLEWMGIIDPSDSDTSLNQKFQGRVTLTVDKSSTTAYMELSSLRSEDTAVYYCARSLDGYYDYWGQGTLVTVSS VL: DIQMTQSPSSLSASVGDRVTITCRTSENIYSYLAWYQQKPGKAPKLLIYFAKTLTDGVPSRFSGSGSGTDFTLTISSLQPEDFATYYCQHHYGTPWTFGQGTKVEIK .
2.2 nM

Every entry's value here was drawn from patent US20230029835A1.
